# protocol_details: Equilibrium solubility in pH buffers (pH 4.0-6.0) with pH adjustment
# Type: physicochemical
# condition_parameters: pH = 6.0 buffer (50 mM phosphate)
Where a name gives a salt, the structure may show the parent alone.
outcome_measure: Area % (purity of supernatant) (Area %)
Expressed in Area %, but write only the number.

stdin: Consider the compound CC(=O)NCC1CCN(Cc2cc(Oc3ccc(N4CCN(CCC(=O)O)CC4)nc3)nc(-c3cc(Cl)cc(Cl)c3)c2)CC1 [Fumarate Type A] and give its measured Area % (purity of supernatant).
stdout: 95.6

stdin: Consider the compound CC(=O)NCC1CCN(Cc2cc(Oc3ccc(N4CCN(CCC(=O)O)CC4)nc3)nc(-c3cc(Cl)cc(Cl)c3)c2)CC1 [Sulfate Type B] and give its measured Area % (purity of supernatant).
stdout: 88.2

stdin: Consider the compound CC(=O)NCC1CCN(Cc2cc(Oc3ccc(N4CCN(CCC(=O)O)CC4)nc3)nc(-c3cc(Cl)cc(Cl)c3)c2)CC1 [Freeform Type A] and give its measured Area % (purity of supernatant).
stdout: 99.3

stdin: Consider the compound CC(=O)NCC1CCN(Cc2cc(Oc3ccc(N4CCN(CCC(=O)O)CC4)nc3)nc(-c3cc(Cl)cc(Cl)c3)c2)CC1 [HCl salt Type F] and give its measured Area % (purity of supernatant).
stdout: 98.9

###

# protocol_details: Approximate solubility at RT
# Assay type: physicochemical
# condition_parameters: MeOH, organic solvent or mixture, thermodynamic from solid, MeOH, RT; read-out: Solubility
# Method: Four freeform isolation experiments were performed in different solvent with different acids. Solids were obtained in DCM/HCl and CHCl3/HCl system. Approximately 2 mg solids were added into a 3-mL glass vial. Solvents in the following table were then added stepwise (50-50-200-700[…] for each step) into the vials and stirred until the solids were dissolved or a total volume of 1 mL was reached. The solubility results were used to guide the solvent selection in polymorph formation.
outcome_measure: solubility

stdin: Consider the molecule CC(=O)NCC1CCN(Cc2cc(Oc3ccc(N4CCN(CCC(=O)O)CC4)nc3)nc(-c3cc(Cl)cc(Cl)c3)c2)CC1 [Freeform Type A] and give its measured solubility.
stdout: > 40 mg/mL

###

# protocol_details: Approximate solubility at RT
# Type: physicochemical
# condition_parameters: Toluene, organic solvent or mixture, thermodynamic from solid, Toluene, RT; read-out: Solubility
outcome_measure: solubility

stdin: Consider the compound CC(=O)NCC1CCN(Cc2cc(Oc3ccc(N4CCN(CCC(=O)O)CC4)nc3)nc(-c3cc(Cl)cc(Cl)c3)c2)CC1 [Freeform Type A] and give its measured solubility.
stdout: < 2100 µg/mL

###

# protocol_details: Approximate solubility at RT
# Format: physicochemical
# condition_parameters: IPAc, organic solvent or mixture, thermodynamic from solid, IPAc, RT; read-out: Solubility
outcome_measure: solubility

stdin: Consider the compound CC(=O)NCC1CCN(Cc2cc(Oc3ccc(N4CCN(CCC(=O)O)CC4)nc3)nc(-c3cc(Cl)cc(Cl)c3)c2)CC1 [Freeform Type A] and give its measured solubility.
stdout: < 1900 µg/mL

###

# protocol_details: Equilibrium solubility in pH buffers (3.0-8.0), 20% captisol and water
# Format: physicochemical
# condition_parameters: 50 mM phosphate buffer, 21 °C, pH 8, aqueous buffer, thermodynamic from solid, pH = 8.0 buffer (50 mM phosphate), RT, 24 hrs; read-out: S: solubility
# Procedure: Additional solids were added into the sample to generate suspension if clear solution obtained. The suspension was equilibrated via stirring (1000 rpm). The suspension was centrifuged to obtain precipitate and supernatants. Solubility and pH were tested for the supernatants after filtration, and isolated precipitate was tested by XRPD. […]
outcome_measure: solubility at 24 h (µg/mL)
Expressed in µg/mL, but write only the number.

stdin: Consider the compound CC(=O)NCC1CCN(Cc2cc(Oc3ccc(N4CCN(CCC(=O)O)CC4)nc3)nc(-c3cc(Cl)cc(Cl)c3)c2)CC1 [Freeform Type A] and give its measured solubility at 24 h.
stdout: 20
